// provenance: patent US20140135357A1

- Protocol notes: clinical
- Conditions: human, in vivo, 13.5 mg/m2
Observable: AUC0-t (µg·h/mL)
Return type: number; implicit unit µg·h/mL.

Reference set, count: 2
Compound	Observable	Test value
CC[C@@]1(OC(=O)[C@@H](C)O)C(=O)OCc2c1cc1n(c2=O)Cc2cc3c(CN(C)C)c(O)ccc3nc2-1 [TLC-U1, S,R-topotecan lactate]	AUC0-t	0.0991
CC[C@@]1(O)C(=O)OCc2c1cc1n(c2=O)Cc2cc3c(CN(C)C)c(O)ccc3nc2-1 [Topotecan, reference compound]	AUC0-t	0.0376

With those in mind, consider the next compound.
Qu. GET /values?readout=AUC0-t&item= CC[C@@]1(OC(=O)[C@H](C)O)C(=O)OCc2c1cc1n(c2=O)Cc2cc3c(CN(C)C)c(O)ccc3nc2-1 [TLC-U2, S,S-topotecan lactate]
Ans. 0.0291
